molecular target: rat 5HT2a receptor (Rattus norvegicus, UniProt P14842); construct: expressed in transfected cells; host or cells: NIH 3T3 mouse cells; assay: 5HT2a Binding Procedure (competition binding using 125I-DOI, membranes of transfected NIH 3T3 mouse cells)
Sequence (P14842 whole entry): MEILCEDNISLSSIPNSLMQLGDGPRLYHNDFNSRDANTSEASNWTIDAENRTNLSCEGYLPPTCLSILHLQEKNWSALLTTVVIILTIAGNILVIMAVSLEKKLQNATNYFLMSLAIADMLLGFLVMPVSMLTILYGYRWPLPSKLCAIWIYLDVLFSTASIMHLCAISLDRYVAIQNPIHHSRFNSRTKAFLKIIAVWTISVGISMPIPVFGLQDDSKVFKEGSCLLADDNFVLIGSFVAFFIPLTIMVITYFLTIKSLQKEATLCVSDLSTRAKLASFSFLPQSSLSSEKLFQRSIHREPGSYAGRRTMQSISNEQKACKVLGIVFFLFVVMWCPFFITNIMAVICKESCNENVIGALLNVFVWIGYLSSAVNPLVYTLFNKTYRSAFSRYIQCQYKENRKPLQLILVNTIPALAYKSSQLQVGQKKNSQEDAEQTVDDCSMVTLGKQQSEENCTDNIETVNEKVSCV
Ki values, listed per item
Supply the numeric figure in nM, leaving out any unit text.

{"columns": ["smiles text", "system tested", "quantity kind", "reported measurement"],
 "data": [
  ["c1ccc2c(O[C@H]3CCc4ccc(N5CCNCC5)nc43)cncc2c1", "rat 5HT2a receptor (Rattus norvegicus, UniProt P14842)", "Ki", 46.8]
]}

Enquiry: Find the measured Ki of "Fc1ccc(F)c(CO[C@H]2CCc3ccc(N4CCNCC4)nc32)c1" and report it.
Return: 25

---

molecular target: human 5HT2b receptor (Homo sapiens); experiment: 5HT2b Binding Procedure (competition binding with 3H-LSD, CHO cell membranes); conditions: read-out: 2bKi; receptor binding, 5HT2b
quantity kind: pKi
Please note pKi is a logarithmic value: minus log10 of concentration in mol/L. Answer with that number alone.

Enquiry: Find the measured pKi of "c1ccc2c(O[C@H]3CCc4ccc(N5CCNCC5)nc43)cncc2c1" and report it.
Return: 6.84

---

target: human 5HT2b receptor (Homo sapiens, UniProt P41595); assay: 5HT2b Binding Procedure (competition binding with 3H-LSD, CHO cell membranes)
Sequence (P41595 whole entry): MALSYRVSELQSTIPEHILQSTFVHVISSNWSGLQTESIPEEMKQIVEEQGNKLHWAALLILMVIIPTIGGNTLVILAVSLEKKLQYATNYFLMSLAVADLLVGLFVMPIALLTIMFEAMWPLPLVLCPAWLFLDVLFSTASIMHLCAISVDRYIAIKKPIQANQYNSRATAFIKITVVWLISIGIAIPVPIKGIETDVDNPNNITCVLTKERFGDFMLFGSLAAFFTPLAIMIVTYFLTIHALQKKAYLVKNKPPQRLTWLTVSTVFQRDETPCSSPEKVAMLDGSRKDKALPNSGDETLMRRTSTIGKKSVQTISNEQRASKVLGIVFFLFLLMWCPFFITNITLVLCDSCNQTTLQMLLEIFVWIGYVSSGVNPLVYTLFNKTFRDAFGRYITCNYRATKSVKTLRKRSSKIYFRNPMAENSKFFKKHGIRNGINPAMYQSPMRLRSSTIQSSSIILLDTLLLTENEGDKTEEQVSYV
quantity kind: Ki (nM)
Supply the numeric figure in nM, leaving out any unit text.

Examples with their reported Ki follow.
{"columns": ["smiles text", "system tested", "reported measurement"],
 "data": [
  ["Fc1cc2c(c(O[C@H]3CCc4ccc(N5CCNCC5)nc43)c1)CCC2", "human 5HT2b receptor (Homo sapiens, UniProt P41595)", 53],
  ["Fc1ccc(F)c(CO[C@H]2CCc3ccc(N4CCNCC4)nc32)c1", "human 5HT2b receptor (Homo sapiens, UniProt P41595)", 159],
  ["C[C@@H]1CNCCN1c1ccc2c(n1)[C@@H](Oc1ccccc1F)CC2", "human 5HT2b receptor (Homo sapiens, UniProt P41595)", 21]
]}

// switching to the query compound
Enquiry: Find the measured Ki of "C[C@@H]1CNCCN1c1ccc2c(n1)[C@@H](OCc1cccc(C#N)c1)CC2" and report it.
Return: 803
